Values compiled from patent US9079891B2.

# Tested on: RBL-2H3 cells
# testDescription: Fluorescence-based assay of store-operated calcium entry in RBL-2H3 cells (FLIPR, thapsigargin)
# Type: cell-based, rat
# conditionDetails: Rattus norvegicus, Fluo-4, Upslope 0-7 sec, read-out: FLIPR_CRAC: 9 pt CRC - Fluo4_TG-D: RBL-2H3: IC50: Upslope 0-7 sec
Listed next: entries and their corresponding IC50.
quantityMeasured: IC50

Cn1c(-c2cnc(NC(=O)c3ccccc3Cl)s2)cc2ccccc21: < 600 nM
Cn1nc(-c2nccs2)cc1-c1ccc(C(=O)Nc2c(F)cncc2F)s1: < 600 nM
Cn1nc(C(F)(F)F)cc1-c1ncc(NC(=O)c2ccccc2Cl)s1: > 1200 nM
O=C(Nc1c(F)cccc1F)c1ccc(-c2cc3scnc3cc2Cl)s1: < 600 nM
Cc1cc2c(cc1-c1cnc(NC(=O)c3c(F)cccc3F)s1)OC(F)(F)O2: < 600 nM
Cn1nc(C(F)(F)F)cc1-c1ccc(NC(=O)c2c(F)cccc2F)s1: < 600 nM
Cn1nc(C(F)(F)F)cc1-c1cnc(NC(=O)c2ccccc2Cl)s1: < 600 nM
Cn1nc(-c2ccccc2)cc1-c1ccc(C(=O)Nc2ncccc2F)s1: 600 to 1200 nM
Cc1cc2scnc2cc1-c1ccc(C(=O)Nc2ccccc2F)s1: < 600 nM
Cn1nc(C(F)(F)F)cc1-c1cnc(NC(=O)c2c(F)cncc2F)s1: 600 to 1200 nM

* * *

Listed next: entries and their corresponding pIC50.
# tgt: recombinant human STIM1 and Orai1 (Homo sapiens, UniProt Q96D31)
# Construct: c-myc (C)
# Sequence (Q96D31 whole entry): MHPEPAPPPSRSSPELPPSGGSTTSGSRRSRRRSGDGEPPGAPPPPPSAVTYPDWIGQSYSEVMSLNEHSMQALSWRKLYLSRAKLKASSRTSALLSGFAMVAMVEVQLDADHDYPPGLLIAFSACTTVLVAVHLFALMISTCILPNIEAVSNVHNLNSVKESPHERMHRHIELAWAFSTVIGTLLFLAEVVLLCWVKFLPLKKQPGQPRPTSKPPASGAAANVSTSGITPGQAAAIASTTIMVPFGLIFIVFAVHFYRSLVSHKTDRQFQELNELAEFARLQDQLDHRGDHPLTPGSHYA
# testDescription: Fluorescence-based assay of store-operated calcium entry in Orai1/STIM1 stable cells (FLIPR)
# conditionDetails: HEK-293 cells stably expressing human Orai1/STIM1; Fluo-4; Peak-Basal signal; read-out: FLIPR_CRAC: 9 point CRC: O1S1_JR251: IC50: Peak_over_Basal
pIC50: −log10 of the molar value.
quantityMeasured: pIC50

Cc1cc2scnc2cc1-c1ccc(C(=O)Nc2ccccc2Cl)s1: > 6.22
Cn1nc(-c2ccccc2)cc1-c1ccc(C(=O)Nc2c(F)cccc2F)s1: > 6.22
O=C(Nc1ccccc1Cl)c1ccc(-c2cc3scnc3cc2Cl)s1: 5.92 to 6.22
Cn1nc(-c2nccs2)cc1-c1ccc(C(=O)Nc2ncccc2F)s1: 5.92 to 6.22
CCn1nc(C(F)(F)F)cc1-c1cnc(NC(=O)c2ccccc2Cl)s1: 5.92 to 6.22
Cc1nc(-c2cc(-c3ccc(C(=O)Nc4c(F)cccc4F)s3)n(C)n2)no1: 5.92 to 6.22
Cc1cc2scnc2cc1-c1ccc(C(=O)Nc2ccccc2F)s1: > 6.22
Cc1cc2c(C)noc2cc1-c1ccc(C(=O)Nc2c(F)cccc2F)s1: > 6.22
Cn1nc(C(F)(F)F)cc1-c1cnc(NC(=O)c2ccc(Cl)cc2)s1: 5.92 to 6.22

* * *

Listed next: entries and their corresponding IC50.
# tgt: recombinant human STIM1 and Orai1 (Homo sapiens)
# Construct: c-myc (C); expressed in transfected cells; host or cells: HEK-293 cells stably expressing human STIM1 and human Orai1
# testDescription: Fluorescence-based assay of store-operated calcium entry in Orai1/STIM1 stable cells (FLIPR)
# Assay type: cell-based
# conditionDetails: HEK-293 cells stably expressing human Orai1/STIM1; Fluo-4; Peak-Basal signal; read-out: FLIPR_CRAC: 9 point CRC: O1S1_JR251: IC50: Peak_over_Basal
quantityMeasured: IC50

Cc1cc2cn(C)nc2cc1-c1ccc(C(=O)Nc2c(F)cccc2F)s1 [Example 15]: 600 to 1200 nM
Cc1cc2c(C)noc2cc1-c1ccc(C(=O)Nc2ccccc2F)s1 [Example 11]: < 600 nM
Cn1nc(-c2cccs2)cc1-c1ccc(C(=O)Nc2c(F)cccc2F)s1 [Example 63]: > 1200 nM
Cn1nc(C(F)(F)F)cc1-c1cnc(NC(=O)c2c(F)cncc2F)s1 [Example 78]: > 1200 nM
Cn1nc(C(F)(F)F)cc1-c1ncc(NC(=O)c2ccccc2Cl)s1 [Example 29]: > 1200 nM
Cc1nc2cc(Cl)c(-c3cnc(NC(=O)c4ccccc4Cl)s3)cc2o1 [Example 19]: < 600 nM
Cn1nc(-c2cccs2)cc1-c1ccc(C(=O)Nc2ccccc2Cl)s1 [Example 65]: > 1200 nM
Cc1cc2c(cc1-c1cnc(NC(=O)c3c(F)cncc3F)s1)OC(F)(F)O2 [Example 81]: > 1200 nM
Cn1nc(C(F)(F)F)cc1-c1cnc(NC(=O)c2c(F)cccc2F)s1 [Example 28]: < 600 nM
Cn1nc(-c2nccs2)cc1-c1ccc(C(=O)Nc2c(F)cccc2F)s1 [Example 49]: < 600 nM
Cn1nc(C(F)(F)F)cc1-c1ccc(NC(=O)c2c(F)cccc2F)s1 [Example 74]: < 600 nM
Cc1cc2scnc2cc1-c1ccc(C(=O)Nc2c(F)cccc2F)s1 [Example 4]: < 600 nM
Cc1cc2c(cc1-c1ccc(NC(=O)c3c(F)cccc3F)s1)OC(F)(F)O2 [Example 80]: > 1200 nM
Cc1cc2c(cc1-c1cnc(NC(=O)c3ccncc3F)s1)OC(F)(F)O2 [Example 82]: < 600 nM
Cc1nc(-c2cc(-c3cnc(NC(=O)c4ccccc4Cl)s3)n(C)n2)no1 [Example 18]: > 1200 nM
Cc1cc2cnn(C)c2cc1-c1ccc(C(=O)Nc2ccccc2F)s1 [Example 12]: 600 to 1200 nM
Cn1nc(C(F)(F)F)cc1-c1sc(C(=O)Nc2c(F)cccc2F)cc1N [Example 30]: > 1200 nM
Cc1cc2c(cc1-c1cnc(NC(=O)c3c(F)cccc3F)s1)OC(F)(F)O2 [Example 83]: > 1200 nM
